# tested_system: Mu-type opioid receptor (Homo sapiens)
# Sequence (P35372 whole entry): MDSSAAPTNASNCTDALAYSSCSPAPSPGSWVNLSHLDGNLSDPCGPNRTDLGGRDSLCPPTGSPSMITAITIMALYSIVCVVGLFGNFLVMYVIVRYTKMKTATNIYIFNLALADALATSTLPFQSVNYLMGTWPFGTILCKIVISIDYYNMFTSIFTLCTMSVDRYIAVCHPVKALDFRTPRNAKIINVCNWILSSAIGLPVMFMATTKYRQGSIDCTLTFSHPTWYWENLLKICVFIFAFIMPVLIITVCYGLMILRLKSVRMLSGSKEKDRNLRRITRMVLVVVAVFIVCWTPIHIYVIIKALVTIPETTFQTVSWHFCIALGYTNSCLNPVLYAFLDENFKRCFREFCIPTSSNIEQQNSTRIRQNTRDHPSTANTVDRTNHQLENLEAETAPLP
# method_notes: Displacement of [3H]-Diprenorphine from human mu opiod receptor expressed in CHO cells incubated for 1 hr by competition binding assay
# Format: cell-based
assay_endpoint: Ki (nM)

>>> reported_value("Fc1ccc([C@]2(CCNCc3cccc(Cl)c3)CCO[C@]3(CCOC3)C2)nc1")
0.514

###

# tested_system: UniProt P35372
# method_notes: Agonist activity at mu opioid receptor (unknown origin) assessed as maximal beta arrestin-2 recruitment incubated for 3 days by PathHunter assay relative to DAMGO
# Assay type: functional
# experimental_conditions: time 3.0 day
assay_endpoint: Emax (%)

>>> reported_value("C[C@@H](Cc1ccsc1)NC(=O)NC[C@H](Cc1ccc(O)cc1)N(C)C")
5
>>> reported_value("Cc1ccsc1CNCC[C@@]1(c2ccc(F)cc2)CCOC2(CCOC2)C1 (stereo not given in full)")
2.9
>>> reported_value("Fc1ccc([C@]2(CCNCc3cccc(Cl)c3)CCO[C@]3(CCOC3)C2)nc1")
1.6
>>> reported_value("COc1ccsc1CNCC[C@@]1(c2ccccn2)CCO[C@]2(CCOC2)C1")
1.2
>>> reported_value("Cc1cc(C)cc(CNCC[C@@]2(c3ccccn3)CCOC3(CCOC3)C2)c1 (stereo not given in full)")
4.6

###

# method_notes: Ratio of drug concentration in brain to plasma of Sprague-Dawley rat at 2 mg/kg, iv measured at […] by LC-MS/MS analysis
# Format: ADME, organism-based
# experimental_conditions: time 0.25 hrs
assay_endpoint: Kp at […]

>>> reported_value("Fc1ccc([C@]2(CCNCc3cccc(Cl)c3)CCO[C@]3(CCOC3)C2)nc1")
4.61

###

# method_notes: Metabolic stability in dog liver microsomes assessed as intrinsic clearance preincubated for 10 mins followed by NADPH addition and measured after 60 mins by LC-MS/MS analysis
# Format: ADME, Canis lupus familiaris, Microsome
# experimental_conditions: time 70 min, read-out: CLH
assay_endpoint: CLint scaled (mL/min/kg)

>>> reported_value("COc1ccsc1CNCC[C@@]1(c2ccccn2)CCOC2(CCCC2)C1 [OLICERIDINE]")
465
>>> reported_value("c1ccc([C@]2(CCNCc3scc4c3CCC4)CCO[C@]3(CCOC3)C2)nc1")
203
>>> reported_value("Fc1ccc([C@]2(CCNCc3cccc(Cl)c3)CCO[C@]3(CCOC3)C2)nc1")
152

###

# method_notes: AUClast in Sprague-Dawley rat at 2 mg/kg, iv by LC-MS/MS analysis
# Assay type: ADME, organism-based
# Parameters: time 0 - last, route intravenous, dose 2 mg/kg
# experimental_conditions: in vivo
assay_endpoint: AUC(0-t) (ng·h/mL)

>>> reported_value("Fc1ccc([C@]2(CCNCc3cccc(Cl)c3)CCO[C@]3(CCOC3)C2)nc1")
132

###

# method_notes: Half life in Sprague-Dawley rat at 2 mg/kg, iv by LC-MS/MS analysis
# Format: ADME, organism-based
# experimental_conditions: in vivo
Let's look at some molecules and their measured half-life.
assay_endpoint: half-life (h)

>>> reported_value("COc1ccsc1CNCC[C@@]1(c2ccccn2)CCOC2(CCCC2)C1 [OLICERIDINE]")
1.21
>>> reported_value("Fc1ccc([C@]2(CCNCc3cccc(Cl)c3)CCO[C@]3(CCOC3)C2)nc1")
1.98

###

# tested_system: Mu-type opioid receptor (Homo sapiens)
# method_notes: Agonist activity at mu opioid receptor (unknown origin) assessed as maximal beta arrestin-2 recruitment incubated for 3 days by PathHunter assay relative to DAMGO
# Format: functional
# experimental_conditions: time 3.0 day
assay_endpoint: Emax (%)

>>> reported_value("FC1(F)Cc2csc(CNCC[C@@]3(c4ccccn4)CCOC4(CCCC4)C3)c2C1")
9.8
>>> reported_value("Clc1ccc(CNCC[C@@]2(c3ccccn3)CCOC3(CCOC3)C2)s1 (stereo not given in full)")
2.3
>>> reported_value("c1ccc([C@]2(CCNCc3ccc4ccccc4c3)CCOC3(CCOC3)C2)nc1 (stereo not given in full)")
1.1
>>> reported_value("c1ccc([C@]2(CCNCc3scc4c3COC4)CCOC3(CCCC3)C2)nc1")
4.4
>>> reported_value("COc1ccsc1CNCC[C@@]1(c2ccccn2)CCOC2(CCCC2)C1")
4.6

###

List of fraction unbound values.
# method_notes: Plasma protein binding in human plasma assessed as unbound fraction
# Assay type: ADME, cell-free
assay_endpoint: fraction unbound

>>> reported_value("c1ccc([C@]2(CCNCc3scc4c3CCC4)CCO[C@]3(CCOC3)C2)nc1")
0.54
>>> reported_value("Fc1ccc([C@]2(CCNCc3cccc(Cl)c3)CCO[C@]3(CCOC3)C2)nc1")
0.34
>>> reported_value("COc1ccsc1CNCC[C@@]1(c2ccccn2)CCOC2(CCCC2)C1")
0.22

###

Entries and their MRT
# method_notes: MRT in Sprague-Dawley rat at 2 mg/kg, iv by LC-MS/MS analysis
# Assay type: ADME, organism-based
# experimental_conditions: in vivo
assay_endpoint: MRT (min)

>>> reported_value("COc1ccsc1CNCC[C@@]1(c2ccccn2)CCOC2(CCCC2)C1")
49.2
>>> reported_value("Fc1ccc([C@]2(CCNCc3cccc(Cl)c3)CCO[C@]3(CCOC3)C2)nc1")
48.6

###

# tested_system: Delta-type opioid receptor (Homo sapiens, UniProt P41143)
# Sequence (P41143 whole entry): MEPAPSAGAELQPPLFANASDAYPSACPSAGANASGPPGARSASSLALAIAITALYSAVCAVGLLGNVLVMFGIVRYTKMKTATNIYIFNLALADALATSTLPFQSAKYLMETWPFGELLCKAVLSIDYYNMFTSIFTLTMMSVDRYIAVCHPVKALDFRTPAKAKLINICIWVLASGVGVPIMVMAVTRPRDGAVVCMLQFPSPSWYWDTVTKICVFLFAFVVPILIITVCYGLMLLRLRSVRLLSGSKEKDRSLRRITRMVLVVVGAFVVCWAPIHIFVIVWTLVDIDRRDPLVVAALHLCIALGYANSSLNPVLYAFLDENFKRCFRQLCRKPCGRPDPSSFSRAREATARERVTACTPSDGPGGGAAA
# method_notes: Agonist activity at human delta opioid receptor expressed in HEK293 assessed as increase in calcium mobilization incubated for 60 mins by FLIPR assay
// reported EC50 per item
assay_endpoint: EC50

>>> reported_value("Fc1ccc([C@]2(CCNCc3cccc(Cl)c3)CCO[C@]3(CCOC3)C2)nc1")
"> 10 µM"
>>> reported_value("COc1ccsc1CNCC[C@@]1(c2ccccn2)CCOC2(CCCC2)C1 [OLICERIDINE]")
"> 10 µM"

###

# tested_system: Mu-type opioid receptor (Homo sapiens)
# method_notes: Agonist activity at mu opioid receptor (unknown origin) assessed as increase in cAMP level incubated for 40 mins by spectrophotometry
# Format: functional
assay_endpoint: EC50 (nM)

>>> reported_value("Fc1ccc([C@]2(CCNCc3cncc(Cl)c3)CCOC3(CCOC3)C2)cc1 (stereo partly specified)")
12.8
>>> reported_value("Fc1ccc([C@]2(CCNCc3scc4c3CCCC4)CCO[C@]3(CCOC3)C2)nc1")
0.2
>>> reported_value("c1ccc([C@]2(CCNCc3scc4c3COC4)CCOC3(CCOC3)C2)nc1 (stereo partly specified)")
14.1
>>> reported_value("Fc1ccc([C@]2(CCNCc3scc4c3CCC4)CCOC3(CCOC3)C2)cc1 (stereo partly specified)")
0.07
>>> reported_value("FC1(F)Cc2csc(CNCC[C@@]3(c4ccccn4)CCOC4(CCCC4)C3)c2C1")
0.1
>>> reported_value("c1ccc([C@]2(CCNCc3ccc4ccccc4c3)CCOC3(CCOC3)C2)nc1 (stereo partly specified)")
174

###

# method_notes: Plasma protein binding in rat plasma assessed as unbound fraction
# Assay type: ADME, cell-free
Known fraction unbound of a selection of molecules
assay_endpoint: fraction unbound

>>> reported_value("COc1ccsc1CNCC[C@@]1(c2ccccn2)CCOC2(CCCC2)C1 [OLICERIDINE]")
0.36
>>> reported_value("Fc1ccc([C@]2(CCNCc3cccc(Cl)c3)CCO[C@]3(CCOC3)C2)nc1")
0.33
>>> reported_value("c1ccc([C@]2(CCNCc3scc4c3CCC4)CCO[C@]3(CCOC3)C2)nc1")
0.58

###

# method_notes: Half life of compound
# Assay type: physicochemical
assay_endpoint: half-life (min)

>>> reported_value("COc1ccsc1CNCC[C@@]1(c2ccccn2)CCOC2(CCCC2)C1 [OLICERIDINE]")
6.51
>>> reported_value("Fc1ccc([C@]2(CCNCc3cccc(Cl)c3)CCO[C@]3(CCOC3)C2)nc1")
7.16
>>> reported_value("C[C@@H](NC(=O)[C@@H](N)Cc1ccc(O)cc1)C(=O)NCC(=O)N(C)[C@@H](Cc1ccccc1)C(=O)NCCO [DAMGO]")
5.95

###

# tested_system: UniProt P35372
# method_notes: Agonist activity at mu opioid receptor (unknown origin) assessed as maximal cAMP level incubated for 40 mins by spectrophotometry relative to DAMGO
# Type: functional
# experimental_conditions: filed as agonist
assay_endpoint: Emax (%)

>>> reported_value("c1ccc([C@]2(CCNCc3scc4c3CCC4)CCO[C@]3(CCOC3)C2)nc1")
96.9
>>> reported_value("Cc1cc(C)cc(CNCC[C@@]2(c3ccccn3)CCOC3(CCOC3)C2)c1 (stereo not given in full)")
96.6
>>> reported_value("Fc1ccc([C@]2(CCNCc3scc4c3CCCC4)CCO[C@]3(CCOC3)C2)nc1")
99.5
>>> reported_value("Fc1ccc([C@]2(CCNCc3cncc(Cl)c3)CCOC3(CCOC3)C2)cc1 (stereo not given in full)")
90.8
>>> reported_value("FC1(F)CCc2c(csc2CNCC[C@@]2(c3ccccn3)CCOC3(CCOC3)C2)C1 (stereo not given in full)")
101
>>> reported_value("Cc1ccsc1CNCC[C@@]1(c2ccc(F)cc2)CCOC2(CCOC2)C1 (stereo not given in full)")
61.2
>>> reported_value("c1ccc([C@]2(CCNCC3CCCCC3)CCOC3(CCOC3)C2)nc1 (stereo not given in full)")
59.2
>>> reported_value("c1ccc([C@]2(CCNCc3scc4c3COC4)CCOC3(CCOC3)C2)nc1 (stereo not given in full)")
90.4
>>> reported_value("Fc1ccc(CNCC[C@@]2(c3ccccn3)CCOC3(CCOC3)C2)cc1Cl (stereo not given in full)")
92.3
>>> reported_value("COc1ccsc1CNCC[C@@]1(c2ccccn2)CCO[C@]2(CCOC2)C1")
63.7
